test system: OVCAR-4; test: NCI tumour cell line growth inhibition, 48 h
Calls of active or inactive are those of the source. No stated cut-off is given here; in the data, active = GI50 up to about 1.1 µM and inactive = higher.
Would you mind telling me the reported GI50 of each entry?

Reported GI50 for `COC(=O)c1c2c(cc3c1CC1(C3)Cc3cc4c(c(C(=O)OC)c3C1)CCCC4)CCCC2` was > 100 µM (inactive)

Reported GI50 for `NCCCNCc1c2ccccc2c(CNCCCN)c2ccccc12` was 11.1 µM (inactive)

Reported GI50 for `CN(C)c1nnnn1-c1c(N)n(C)c(=O)n(C)c1=O` was > 100 µM (inactive)

Reported GI50 for `CCCOc1ccc(/C=C/C2=[N+](CCO)CCO2)cc1` was > 100 µM (inactive)

Reported GI50 for C=C1C(=O)OC2CC(=C)C3CC=C(C)C3CC12 (stereo not given) was 27.3 µM (inactive)

Reported GI50 for `COc1cc2c(c(OC)c1)C(=O)O[C@H](C)CCCC/C=C/C2` was 12.1 µM (inactive)

Reported GI50 for COc1cc(C2S/C(=C/c3ccccc3)C(=O)N2c2cccc(NC(C)=O)c2)cc(OC)c1OC (stereo not given) was 24.4 µM (inactive)

Reported GI50 for COC(=O)C1=C(C[S+]([O-])c2ccc([N+](=O)[O-])cc2[N+](=O)[O-])ON(C)C1c1ccccc1 (stereo not given) was 48.4 µM (inactive)

Reported GI50 for `O=C1Nc2ccc(Br)cc2/C1=N/c1ccc2c(c1)OCO2` was 3.72 µM (inactive)

Reported GI50 for `CC(C)(C)c1ccc(-c2nc3ccc([N+](=O)[O-])cc3c(=O)o2)cc1` was 17.6 µM (inactive)
